The values you see were collected from paper doi:10.1101/2023.04.13.536802.

Target: recombinant transferrin receptor 1 (TfR1) ectodomain (residues C89-F763) (UniProt Q62351 89-763)
Sequence (Q62351 89-763): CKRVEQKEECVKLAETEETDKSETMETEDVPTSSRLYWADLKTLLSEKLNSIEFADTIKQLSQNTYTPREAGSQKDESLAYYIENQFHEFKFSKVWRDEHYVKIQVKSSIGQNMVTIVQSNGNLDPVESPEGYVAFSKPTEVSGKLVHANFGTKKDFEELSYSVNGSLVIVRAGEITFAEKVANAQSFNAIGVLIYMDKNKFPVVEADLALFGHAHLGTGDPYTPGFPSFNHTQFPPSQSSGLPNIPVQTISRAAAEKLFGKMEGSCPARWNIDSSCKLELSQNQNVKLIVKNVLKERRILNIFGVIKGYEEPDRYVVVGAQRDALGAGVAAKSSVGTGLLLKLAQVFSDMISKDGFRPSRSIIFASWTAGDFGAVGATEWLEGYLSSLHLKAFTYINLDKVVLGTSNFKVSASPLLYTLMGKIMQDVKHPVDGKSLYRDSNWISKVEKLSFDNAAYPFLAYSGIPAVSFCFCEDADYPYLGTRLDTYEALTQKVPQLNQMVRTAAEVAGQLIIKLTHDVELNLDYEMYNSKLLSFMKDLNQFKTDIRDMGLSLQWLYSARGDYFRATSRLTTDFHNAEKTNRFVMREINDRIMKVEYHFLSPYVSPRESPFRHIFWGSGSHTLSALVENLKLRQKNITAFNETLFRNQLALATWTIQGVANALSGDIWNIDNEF
Assay: BLI
pKd: −log10 of the molar value. Where no end group is shown, it is not given here.
endpointLabel: pKd

binder="THRPPMWSPVWP (also: biotin, position not given here) [T12, 12-mer peptide that binds transferrin receptor 1]" quantitativeresult=7.59
